# Test target: T1, Cynomolgus macaque ASGR1 on CHO-S cells (Cynomolgus macaque)
# T1 construct: whole, on cells; also called Cynomologous ASGR1
# Method notes: Guava flow cytometry on CHO-S cells expressing cynomolgus ASGR1
The label true (1) is reserved for EC50 strictly under 0.5 nM; false (0) covers values equal to or above it.

[
  {
    "Binder": "G2D (antibody, V domains shown, parental mouse hybridoma antibody; also called mAb G2D) VH: EVQLQQSGPELVKPGASVKISCKASGYSFTGYYMHWVKQSHVKSLEWIGRINPNNGATNYNQNFKDKASLTVDKSSSTAYMEFHSLTSEDSAVYYCTSVNFYYWGQGTTLTVSS VL: DIKMTQSPSSMYASLGERVTITCKASQVINSYLSWFQQKPGKSPETLIYRANTLVDGVPSRFSGSGSGQDYSLTISSLEYEDLGIYYCLQYAEFPYTFGGGTKLEIK",
    "Group": "true (1)"
  }
]

is_below(EC50, 0.5 nM) for J4F (antibody, V domains shown, parental mouse hybridoma antibody; also called mAb J4F) VH: QVQLQQSGDDLVKPGASVKLSCKASGYTFTSYWINWIKQRPGQGLEWIGRIVPGSGSTYYNEMFKDKATLTVDTSSSTAYIQLSSLSSEDSAVYFCARKPNFDVWGAGTTVTVSS VL: DIVMTQSQKFMSTSVGDRVSVTCKASQNVGTNVAWYQQKPGQSPKAVIYSASYRFSGVPDRLTGSGSGTDFTLTITNVQSEDLAEYFCQQYNSYPLTFGAGTKLELK ? false (0)

Please determine if K2E (antibody, V domains shown, parental mouse hybridoma antibody; also called mAb K2E) VH: QVQLQQSAAELARPGASVKMSCKASGYTFTSYTMHWVKQRPGQGLEWIGYISPSSGYTEYNQKFKDKTTLTADKSSSTAYMQLSSLTSEDSAVYYCARKFDYWGQGTTLTVSS VL: DIKMTQSPSSMYASLGERVTITCKASQDINSYLSWFQQKPGKSPKTLIYRANRLVDGVPSRFSGSGSGQDFSLTISSLEYEDMGIYYCLQYDEFPFTFGSGTKLEIK is below 0.5 nM in terms of EC50. false (0)

Consider hzL4L-7 (antibody, IgG1, V domains shown, IgG1, kappa) VH: QVQLQESGPGLVKPSQTLSLTCTVSGYSISSDYAWNWIRQHPGKGLEWIGYISYSGSTRYNPSLKSRVTITRDTSKNQFSLKLSSVTAADTAVYYCARRYRYDEGYGMDYWGQGTTVTVSS VL: DIQMTQSPSSLSASVGDRVTITCRASENIYSNLAWYQQKPGKAPKLLIYAATNLADGVPSRFSGSGSGTDFTLTISSLQPEDFATYYCQHFWGTPPWTFGGGTKVEIK . Does its EC50 lie strictly below 0.5 nM? true (1)

Regarding hzH8K-1 (antibody, IgG1, V domains shown, IgG1, kappa) VH: QVQLQESGPGLVKPSQTLSLTCTVSGGSISSDYAWNWIRQHPGKGLEWIGYRSYRGSTSYNPSLKSRVTISVDTSKNQFSLKLSSVTAADTAVYYCARRGYYGSSSHWYFDVWGQGTTVTVSS VL: DIQMTQSPSSLSASVGDRVTITCRASENIYSYLAWYQQKPGKAPKLLIYNAKTLAEGVPSRFSGSGSGTDFTLTISSLQPEDFATYYCQHHYGTPLTFGGGTKVEIK , kindly confirm whether its EC50 is beneath 0.5 nM. false (0)
